# credit: ChEMBL document CHEMBL1909046

assay-system: Alpha-1A adrenergic receptor (Rattus norvegicus, UniProt P43140)
Sequence (P43140 whole entry): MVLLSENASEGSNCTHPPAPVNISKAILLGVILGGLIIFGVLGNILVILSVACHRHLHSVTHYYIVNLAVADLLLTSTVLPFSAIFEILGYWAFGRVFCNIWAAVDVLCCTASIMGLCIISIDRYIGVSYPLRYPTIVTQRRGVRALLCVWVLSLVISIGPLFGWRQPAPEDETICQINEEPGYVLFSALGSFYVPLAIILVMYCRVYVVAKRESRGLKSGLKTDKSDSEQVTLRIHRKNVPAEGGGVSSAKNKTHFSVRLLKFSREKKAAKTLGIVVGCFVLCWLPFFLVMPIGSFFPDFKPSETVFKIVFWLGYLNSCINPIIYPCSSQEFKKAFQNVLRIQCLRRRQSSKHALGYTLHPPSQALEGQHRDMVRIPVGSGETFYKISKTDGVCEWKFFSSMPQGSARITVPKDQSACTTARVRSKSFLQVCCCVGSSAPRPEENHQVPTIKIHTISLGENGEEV
procedure-summary: DRUGMATRIX: Alpha-1A adrenergic receptor radioligand binding (ligand: prazosin)
Format: cell membranes, Wistar, Submaxillary gland, Membrane
stated-conditions: Not Active = under 50% inhibition at 10 µM; read-out: Ki
pKi: −log10 of the molar value.

compound: CC/C(=C(/CC)c1ccc(O)cc1)c1ccc(O)cc1
pKi: 5.10
--
compound: CC(=O)N1CCN(c2ccc(OCC3COC(Cn4ccnc4)(c4ccc(Cl)cc4Cl)O3)cc2)CC1 (stereo not given)
pKi: 4.84
--
compound: Clc1ccc2c(c1)C(N1CCNCC1)=Nc1ccccc1O2
pKi: 6.84
--
compound: CN1CCC(=C2c3ccccc3C=Cc3ccccc32)CC1
pKi: 7.01
--
compound: O=C(c1ccc(OCCN2CCCCC2)cc1)c1c(-c2ccc(O)cc2)sc2cc(O)ccc12
pKi: 6.05

* * *

procedure-summary: DRUGMATRIX: Calcium Channel Type L, Phenylalkylamine radioligand binding (ligand: [3H] (-)-Desmethoxyverapamil (D-888))
Assay type: cell membranes, Rattus norvegicus, Wistar, Brain, Membrane
stated-conditions: Not Active = under 50% inhibition at 10 µM
Where a SMILES comes first, the peptide text is derived from it. Bridges are numbered along the chain shown (N, C = ends). [ ]: non-standard residue; d: D form. The star is where a group is joined. Threoninol(2S,3R) = C[C@@H](O)[C@H](CO)N*
observation-type: Ki

compound: C[C@@H](O)[C@H](CO)NC(=O)[C@@H]1CSSC[C@H](NC(=O)[C@H](N)Cc2ccccc2)C(=O)N[C@@H](Cc2ccccc2)C(=O)N[C@H](Cc2c[nH]c3ccccc23)C(=O)N[C@@H](CCCCN)C(=O)N[C@@H]([C@@H](C)O)C(=O)N1 (H-[dF]CF[dW]KTC-{Threoninol(2S,3R)}; disulfide 2-7)
result: Not Active
--
compound: Nc1c(CC(=O)O)cccc1C(=O)c1ccc(Br)cc1 [BROMFENAC]
result: Not Active
--
compound: CCn1cc(C(=O)O)c(=O)c2cc(F)c(N3CCN(C)CC3)cc21 [PEFLOXACIN]
result: Not Active

* * *

assay-system: Cytochrome P450 2A6 (Homo sapiens); also: in other assays of this panel Not Active means under 50% inhibition at 10 µM
Sequence (P11509 whole entry): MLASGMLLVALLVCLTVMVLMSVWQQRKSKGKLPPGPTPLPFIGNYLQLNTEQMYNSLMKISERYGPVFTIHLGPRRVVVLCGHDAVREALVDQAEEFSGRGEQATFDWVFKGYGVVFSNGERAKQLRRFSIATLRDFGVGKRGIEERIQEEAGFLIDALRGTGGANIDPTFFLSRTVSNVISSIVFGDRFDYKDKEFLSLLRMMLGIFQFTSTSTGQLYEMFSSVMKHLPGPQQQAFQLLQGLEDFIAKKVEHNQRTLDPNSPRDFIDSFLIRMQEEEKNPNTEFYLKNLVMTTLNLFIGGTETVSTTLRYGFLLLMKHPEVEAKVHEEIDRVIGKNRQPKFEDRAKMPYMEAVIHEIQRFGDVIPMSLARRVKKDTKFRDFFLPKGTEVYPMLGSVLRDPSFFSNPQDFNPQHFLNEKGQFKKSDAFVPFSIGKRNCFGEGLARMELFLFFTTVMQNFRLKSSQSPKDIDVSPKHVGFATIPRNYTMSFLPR
stated-conditions: bti-tn-5b1-4

molecule: CN1C(=O)COc2c(C(=O)NC3CN4CCC3CC4)cc(Cl)cc21 (stereo not drawn) [AZASETRON]
Ki: Not Active
--
molecule: [H]/N=C(/N)N[C@H]1[C@H](O)[C@@H](O)[C@H](O[C@@H]2O[C@@H](C)[C@](O)(C=O)[C@H]2O[C@@H]2O[C@@H](CO)[C@H](O)[C@@H](O)[C@@H]2NC)[C@@H](N/C(N)=N\[H])[C@@H]1O [STREPTOMYCIN]
Ki: Not Active
--
molecule: COC(=O)C1=C(C)NC(C)=C(C(=O)OCC(C)C)C1c1ccccc1[N+](=O)[O-] (stereo not drawn) [NISOLDIPINE]
Ki: Not Active
